This section presents sequences with their documented phosphorylation enrichment values.
Tested on: Fer (mouse)
Experiment Notes: phosphorylation enrichment, bacterial display (enrichment ratio); higher = better substrate or ligand; peptides without Tyr show the background;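 also: 11-residue human phosphosite peptides and single-mutation variants displayed on the E. coli surface, counted by deep sequencing, each peptide's frequency after selection divided by its frequency in the unselected input library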;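 also: frequency after pTyr selection over input frequency; kinase dosed for 20-30% of maximal phosphorylation in three min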
# output: bare number, no unit

Example entries begin here.
QEALEYFMKQT [PIK3CA_Y1038_M1043T]    1.82
MSRNLYSGDYY [DDR2_Y736]    2.13
IPGVEYLVSII [TNC_Y1775]    0.445
LNEVGYDDIGG [VCP_Y203]    0.861
SVTCTYSPVLN [TP53_Y126_A129V]    1.02
YSKTQYNQVPS [CXADR_Y318]    0.386

Record TTEHIYGDKFF [UBA7_Y524_N527K] . Reported phosphorylation enrichment: 0.502

The sequence listed as KMTGRYEMYAR [UPB1_Y362] shows phosphorylation enrichment equal to 0.438

Entry under test: NNKKDYYDMYE [SLC26A3_Y526_K521N] . Its phosphorylation enrichment was 0.544

Per the record, KHCEDYVFSFN [DSC1_Y846_C848F_YF] has phosphorylation enrichment of 0.562

// INSLKYAYNVS [EIF2B5_Y583_I587V] : phosphorylation enrichment value = 0.419

----------
Listed next: entries and their corresponding phosphorylation enrichment.
Assayed System: Hck (UniProt P08631)
Sequence (P08631 whole entry, looked up): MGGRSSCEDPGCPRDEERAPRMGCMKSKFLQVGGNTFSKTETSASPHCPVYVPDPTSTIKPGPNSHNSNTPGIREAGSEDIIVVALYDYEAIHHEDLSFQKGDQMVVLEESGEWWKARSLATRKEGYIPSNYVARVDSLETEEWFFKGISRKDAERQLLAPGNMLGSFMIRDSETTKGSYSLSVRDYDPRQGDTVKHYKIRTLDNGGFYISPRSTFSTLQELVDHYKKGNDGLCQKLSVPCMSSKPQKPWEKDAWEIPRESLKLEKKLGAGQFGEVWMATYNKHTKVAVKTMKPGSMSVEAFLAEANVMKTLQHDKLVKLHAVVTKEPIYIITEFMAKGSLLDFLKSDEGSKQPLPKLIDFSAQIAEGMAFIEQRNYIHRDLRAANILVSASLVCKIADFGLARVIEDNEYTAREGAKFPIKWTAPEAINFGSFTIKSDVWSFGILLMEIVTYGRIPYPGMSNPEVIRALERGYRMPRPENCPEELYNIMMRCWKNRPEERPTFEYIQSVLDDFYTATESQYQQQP
Experiment Notes: phosphorylation enrichment, bacterial display (enrichment ratio); higher = better substrate or ligand; peptides without Tyr show the background
Could you keep your reply to the number by itself?

Example cases with answers are listed next.
SFCFRYCCAAR [SUMF1_Y344_R345C_YF]    0.436
FMFKVYSDPQP [FGFR1_Y280_C277Y_YF]    0.667

Entry EGDGVYTLNNK [HP_Y125_E130K] , phosphorylation enrichment reported as 3.23

Please fill in: phosphorylation enrichment reported for RSDEDYLCREE [POR_Y573_Y575C] = 0.769

// phosphorylation enrichment value for MLEVPYVDRNS [F10_Y384] : 0.453

----------
Assayed System: FGFR3 (UniProt P22607)
Sequence (P22607 whole entry, looked up): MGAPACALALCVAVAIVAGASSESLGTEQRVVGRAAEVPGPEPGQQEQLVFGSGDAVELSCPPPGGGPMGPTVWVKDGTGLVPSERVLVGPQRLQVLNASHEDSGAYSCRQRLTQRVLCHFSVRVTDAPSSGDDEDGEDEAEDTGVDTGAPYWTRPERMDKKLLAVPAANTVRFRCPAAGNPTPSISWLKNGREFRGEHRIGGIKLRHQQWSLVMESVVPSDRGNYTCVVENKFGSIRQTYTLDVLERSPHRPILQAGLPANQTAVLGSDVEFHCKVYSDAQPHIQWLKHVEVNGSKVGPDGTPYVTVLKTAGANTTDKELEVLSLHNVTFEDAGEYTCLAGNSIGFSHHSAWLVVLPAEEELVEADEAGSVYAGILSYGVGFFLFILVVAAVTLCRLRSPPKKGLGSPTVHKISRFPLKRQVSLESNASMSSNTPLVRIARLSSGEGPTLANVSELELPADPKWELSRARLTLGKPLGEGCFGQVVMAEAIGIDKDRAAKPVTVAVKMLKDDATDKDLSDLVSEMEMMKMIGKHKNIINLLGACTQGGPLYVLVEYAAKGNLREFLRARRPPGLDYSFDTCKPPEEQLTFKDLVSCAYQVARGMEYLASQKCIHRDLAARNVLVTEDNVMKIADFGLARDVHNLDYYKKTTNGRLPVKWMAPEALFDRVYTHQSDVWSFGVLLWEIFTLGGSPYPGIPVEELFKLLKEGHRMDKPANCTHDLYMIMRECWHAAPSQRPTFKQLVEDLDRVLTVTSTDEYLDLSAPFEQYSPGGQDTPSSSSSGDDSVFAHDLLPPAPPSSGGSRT
Experiment Notes: phosphorylation enrichment, bacterial display (enrichment ratio); higher = better substrate or ligand; peptides without Tyr show the background
Values of phosphorylation enrichment greater than or equal to 0.7 map to yes (1); values below map to no (0).

Input: Confirm if phosphorylation enrichment reported for the sequence QRPYVYYYSYL [PTEN_Y176_R173P] is 0.7 or above.
Output: yes (1)

Input: Check this sequence for phosphorylation enrichment at or above 0.7: ADARMCGVLPW [PLP1_Y207_Y207C]
Output: no (0)

Input: Hi, just wondering whether AHPIIYEIIEA [PYKtide_E_2014] shows phosphorylation enrichment of 0.7 or higher.
Output: yes (1)

Input: Could you please find out whether VASSLYDILAR [GLB1_Y294] has phosphorylation enrichment that meets 0.7 or exceeds it?
Output: no (0)

Input: Is it the case that RQEEEYKRFSE [SFSWAP_Y133_L136F] has phosphorylation enrichment reaching or exceeding 0.7?
Output: yes (1)

Input: Could you verify whether the entry QDDYSYPSRQM [LDLR_Y847_G844D] shows phosphorylation enrichment of no less than 0.7?
Output: yes (1)

Input: Could you verify whether the entry KDKLPYLFDDP [GPX2_Y125_P126L_YF] shows phosphorylation enrichment of no less than 0.7?
Output: no (0)

The origin of these recorded values is the supplement of paper PMC10065799.
